Target: human recombinant Yes [a.a. 2–543 (end)] (Homo sapiens, UniProt P07947)
Construct: human recombinant Yes [a.a; 2–543 (end)]; purchased BPS Bioscience 40488
Sequence (P07947 2-543): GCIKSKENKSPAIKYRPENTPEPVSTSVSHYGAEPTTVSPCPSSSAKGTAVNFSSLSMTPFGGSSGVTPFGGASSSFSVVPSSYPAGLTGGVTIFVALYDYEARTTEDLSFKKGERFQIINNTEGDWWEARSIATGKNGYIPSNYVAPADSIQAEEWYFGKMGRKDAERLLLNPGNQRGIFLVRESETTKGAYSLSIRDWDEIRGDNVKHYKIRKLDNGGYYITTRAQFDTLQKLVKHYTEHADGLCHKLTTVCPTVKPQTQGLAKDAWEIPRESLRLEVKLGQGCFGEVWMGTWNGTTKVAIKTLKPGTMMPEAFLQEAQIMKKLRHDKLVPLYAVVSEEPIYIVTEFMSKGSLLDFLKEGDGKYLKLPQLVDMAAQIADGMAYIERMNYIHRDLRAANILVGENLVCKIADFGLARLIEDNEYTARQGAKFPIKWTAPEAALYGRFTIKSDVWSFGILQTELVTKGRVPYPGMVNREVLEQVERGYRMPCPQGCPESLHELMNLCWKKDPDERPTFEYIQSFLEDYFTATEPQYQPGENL
Assay: ADP-Glo kinase assay, inhibition rates of Yes phosphorylation activity (first and second screening)
Assay type: biochemical
Conditions: first screening; mean of n = 4 wells; 10 μmol L−1 compound
Procedure: All inhibitory assays of the phosphorylation activity of Yes were performed in accordance with the Promega Technical Manual for the ADP-Glo™ Kinase Assay (Fitchburg, WI, USA. Catalog number: V9102). The human recombinant Yes [a.a. […] The screening was conducted in three steps consisting of the first screening, the second screening, and the IC50 determination, as can be illustrated in Fig. 1b. First, we determined the inhibition rates of the 1,991 compounds. […]
As shown below, each of these compounds has a reported First screening IR (inhibition rate) value.
# value in %; strip the unit string

Example compounds with recorded First screening IR (inhibition rate):
1. COc1cccc(/C(O)=C2\C(=O)C(=O)N(CCCn3ccnc3)C2c2cccc([N+](=O)[O-])c2)c1 (stereo not drawn) [Compound Z316156320]	-1
2. Cc1ccc(SCC(=O)OCC(=O)Nc2ccc3[nH]c(=O)[nH]c3c2)cc1C [Compound Z16616292]	-13

First screening IR (inhibition rate) value, target or system human recombinant Yes [a.a. 2–543 (end)] (Homo sapiens, UniProt P07947), for N#Cc1cnc(NCCC(=O)N2CCc3sccc3C2)c(Cl)c1 [Compound Z1039090738] : 2

----------
target: human recombinant Yes [a.a. 2–543 (end)] (Homo sapiens); construct: human recombinant Yes [a.a; 2–543 (end)]; purchased BPS Bioscience 40488; assay: ADP-Glo kinase assay, inhibition rates of Yes phosphorylation activity (first and second screening); assay type: biochemical; conditions: first screening; mean of n = 4 wells; 10 μmol L−1 compound
As shown below, each of these molecules has a reported First screening IR (inhibition rate) value.
# value in %; strip the unit string

Example molecules with recorded First screening IR (inhibition rate):
1. N#CCCn1ncc2c(N3CCN(Cc4ccco4)CC3)ncnc21	3
2. NC(=S)c1cc(C(=O)c2ccccc2O)cn2c1nc1ccccc12	5
3. O=C(O)/C(=C\c1cccc(C(F)(F)F)c1)Sc1nnc(-c2ccco2)o1	-11
4. Cc1cc(=O)[nH]c(SCC(=O)c2ccc3c(c2)NC(=O)CO3)n1	-14
5. C#CC(COC)NS(=O)(=O)CCCS(C)(=O)=O (centres unmarked)	4
6. NC(=O)c1ccc(COc2ccc(I)cc2)c(F)c1	-2

Looking up "Cn1c(C(=O)Oc2ccc(NC(=O)c3ccco3)cc2)cc2ccccc21" , I see its First screening IR (inhibition rate) listed as -1

Looking up CCN(CC)C(CNC(=O)C1CCN(c2ccc3nnc(C(F)(F)F)n3n2)CC1)c1ccccc1 (centres unmarked) , I see its First screening IR (inhibition rate) listed as 0

----------
As shown below, each of these compounds has a reported First screening IR (inhibition rate) value.
biological target: human recombinant Yes [a.a. 2–543 (end)] (Homo sapiens, UniProt P07947); construct: human recombinant Yes [a.a; 2–543 (end)]; purchased BPS Bioscience 40488; assay: ADP-Glo kinase assay, inhibition rates of Yes phosphorylation activity (first and second screening); type: biochemical; settings: first screening; mean of n = 4 wells; 10 μmol L−1 compound
# value in %; strip the unit string

Example compounds with recorded First screening IR (inhibition rate):
1) Cc1noc(C)c1COC(=O)c1ccc2[nH]c(C)c(C)c2c1	4
2) CN(C)c1nc(N)nc(CSCCC(=O)Nc2ccccc2)n1	-8
3) CN(CC(=O)N1N=C(c2ccco2)CC1c1cccs1)Cc1nc2ccccc2c(=O)[nH]1 (centres unmarked)	-3
4) CC(C)n1ncc2cc(C(=O)Nc3ccc4[nH]c(=O)[nH]c4c3)cnc21	-10
5) CC(C)c1ccc(S(=O)(=O)NC(C)c2ccc(-n3ccnc3)cc2)cc1 (centres unmarked)	-8

First screening IR (inhibition rate) value, target or system human recombinant Yes [a.a. 2–543 (end)] (Homo sapiens, UniProt P07947), for "O=C1CN(C(=O)c2nn(-c3ccc(F)cc3)c3c2CCCCC3)CCN1" : 10

First screening IR (inhibition rate) value, target or system human recombinant Yes [a.a. 2–543 (end)] (Homo sapiens, UniProt P07947), for CC(C)c1nncn1CCNC(=O)C(c1cc(Cl)cc(Cl)c1)N(C)C (centres unmarked) : 5

First screening IR (inhibition rate) value, target or system human recombinant Yes [a.a. 2–543 (end)] (Homo sapiens, UniProt P07947), for "CC1=CC(=C(C#N)c2nc3ccccc3s2)C=C(C)N1c1ccc2c(c1)OCCO2" : -6

First screening IR (inhibition rate) value, target or system human recombinant Yes [a.a. 2–543 (end)] (Homo sapiens, UniProt P07947), for CC1(C)CN(c2nc(-c3ccncc3)nc3c2CCC3)CC[S+]1[O-] (centres unmarked) : 8

First screening IR (inhibition rate) value, target or system human recombinant Yes [a.a. 2–543 (end)] (Homo sapiens, UniProt P07947), for "Cc1ccc(-c2noc(/C=C/c3cncc(O)c3)n2)cc1F" : -4

First screening IR (inhibition rate) value, target or system human recombinant Yes [a.a. 2–543 (end)] (Homo sapiens, UniProt P07947), for CCCn1c(NC(=O)c2ccc3c(c2)NC(=O)C(C)S3)nc2ccccc21 (centres unmarked) : 51
